# Experimental Protocol: Metabolic stability in mouse lung assessed as parent compound remaining measured after 1 hrs by UPLC-MS analysis
# Assay type: ADME, tissue-based
# Experimental Setup: mouse lung, read-out: Stability
Reported Metric: remaining at 1 h (%)
Dear colleague, please return just the value in %, with no unit written.

In: Consider the compound CC[C@H](C)[C@H](NC(=O)[C@@H](NC(=O)[C@H](CO)NC(=O)[C@@H](NC(=O)CNC(=O)[C@H](Cc1ccccc1)N(C)C(=O)[C@@H](O)[C@@H](O)[C@H](CNC(=O)[C@H](NC(=O)[C@H](O)[C@H](C)O)[C@H](O)c1cncn1C)OC)C(C)(C)O)C(C)(C)O)C(=O)N[C@@H](CO)C(=O)N[C@@H](CCC(=O)NCc1cc(=O)c(O)cn1O)C(=O)O and give its measured remaining at 1 h.
Out: 73

More entries:
In: Consider the compound CO[C@@H](CNC(=O)[C@H](NC(=O)[C@H](O)[C@H](C)O)[C@H](O)c1cncn1C)[C@H](O)[C@H](O)C(=O)N(C)[C@@H](Cc1ccccc1)C(=O)NCC(=O)N[C@H](C(=O)N[C@@H](CO)C(=O)N[C@H](C(=O)N[C@H](C(=O)N[C@@H](CC(=O)O)C(=O)N1CCC[C@H]1C(=O)NCc1cc(=O)c(O)cn1O)C(C)(C)C)C(C)(C)O)C(C)(C)O and give its measured remaining at 1 h.
Out: 100

* * *

# Experimental Protocol: Metabolic stability in mouse lung assessed as parent compound remaining measured after 1 hrs by UPLC-MS analysis
# Assay type: ADME, tissue-based
# Experimental Setup: mouse lung, read-out: Stability
The entries below are paired with their reported remaining at 1 h.
Dear colleague, please return just the value in %, with no unit written.

In: Consider the compound CO[C@@H](CNC(=O)[C@H](NC(=O)[C@H](O)[C@H](C)O)[C@H](O)c1cncn1C)[C@H](O)[C@H](O)C(=O)N(C)[C@@H](Cc1ccccc1)C(=O)NCC(=O)N[C@H](C(=O)N[C@@H](CO)C(=O)N[C@H](C(=O)N[C@H](C(=O)N[C@@H](CO)C(=O)N[C@H](CCC(=O)NCc1cc(=O)c(O)cn1O)C(=O)O)C(C)(C)C)C(C)(C)O)C(C)(C)O and give its measured remaining at 1 h.
Out: 89

In: Consider the compound CO[C@@H](CNC(=O)[C@H](NC(=O)[C@H](O)[C@H](C)O)[C@H](O)c1cncn1C)[C@H](O)[C@H](O)C(=O)N(C)[C@@H](Cc1ccccc1)C(=O)NCC(=O)N[C@H](C(=O)N[C@@H](CO)C(=O)N[C@H](C(=O)N[C@@H](CC(C)C)C(=O)N[C@@H](CO)C(=O)N[C@@H](CCC(=O)NCc1cc(=O)c(O)cn1O)C(=O)O)C(C)(C)O)C(C)(C)O and give its measured remaining at 1 h.
Out: 1

More entries:
In: Consider the compound CO[C@@H](CNC(=O)[C@H](NC(=O)[C@H](O)[C@H](C)O)[C@H](O)c1cncn1C)[C@H](O)[C@H](O)C(=O)N(C)[C@@H](Cc1ccc(F)cc1)C(=O)NCC(=O)N[C@H](C(=O)N[C@@H](CO)C(=O)N[C@H](C(=O)N[C@H](C(=O)N[C@@H](CO)C(=O)O)C(C)(C)C)C(C)(C)O)C(C)(C)O and give its measured remaining at 1 h.
Out: 89
